SYSTEM UNDER TEST: human TRP-M8 receptor (Homo sapiens)
Sequence (Q7Z2W7 whole entry): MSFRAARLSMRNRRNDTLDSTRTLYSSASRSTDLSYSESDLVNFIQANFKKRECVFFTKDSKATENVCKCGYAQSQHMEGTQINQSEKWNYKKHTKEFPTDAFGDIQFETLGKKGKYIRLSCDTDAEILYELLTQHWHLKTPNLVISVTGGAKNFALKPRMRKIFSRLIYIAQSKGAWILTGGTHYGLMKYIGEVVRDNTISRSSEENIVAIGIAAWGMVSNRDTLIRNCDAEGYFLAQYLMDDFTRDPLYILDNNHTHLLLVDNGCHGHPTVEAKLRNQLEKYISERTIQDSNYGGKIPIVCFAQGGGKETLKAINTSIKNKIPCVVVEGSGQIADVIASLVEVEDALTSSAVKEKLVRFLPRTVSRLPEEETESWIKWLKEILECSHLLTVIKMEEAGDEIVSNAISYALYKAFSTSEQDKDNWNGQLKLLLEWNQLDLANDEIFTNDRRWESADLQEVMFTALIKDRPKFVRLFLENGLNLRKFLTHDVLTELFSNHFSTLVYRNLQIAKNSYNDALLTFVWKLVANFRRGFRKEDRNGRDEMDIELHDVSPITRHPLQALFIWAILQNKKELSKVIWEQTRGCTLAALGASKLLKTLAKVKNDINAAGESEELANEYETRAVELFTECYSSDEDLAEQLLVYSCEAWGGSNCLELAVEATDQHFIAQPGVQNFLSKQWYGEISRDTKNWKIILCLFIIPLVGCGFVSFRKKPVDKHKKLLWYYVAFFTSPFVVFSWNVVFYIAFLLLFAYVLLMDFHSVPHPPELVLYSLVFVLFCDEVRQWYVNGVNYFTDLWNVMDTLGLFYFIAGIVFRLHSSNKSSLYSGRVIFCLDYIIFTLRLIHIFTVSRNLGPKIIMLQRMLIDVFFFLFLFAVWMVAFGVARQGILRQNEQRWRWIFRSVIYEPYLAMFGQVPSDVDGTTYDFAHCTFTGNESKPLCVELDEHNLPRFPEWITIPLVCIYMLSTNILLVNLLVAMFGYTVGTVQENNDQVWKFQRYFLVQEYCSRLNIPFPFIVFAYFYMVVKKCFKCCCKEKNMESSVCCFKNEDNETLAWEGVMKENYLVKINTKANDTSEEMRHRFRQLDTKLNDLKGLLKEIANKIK
MEASUREMENT DESCRIPTION: Fura-2 calcium fluorescence in HEK cells permanently transfected with human TRP-M8
CONDITION PARAMETERS: Fura-2, 29 or 37° C., 96-well plate reader; read-out: EC50 (median effective concentration, calcium influx)
OBSERVATION TYPE: EC50 (µM)
Your answer is read as µM, so omit the unit and give the number.

Record COc1cc(NS(=O)(=O)c2ccc(NC(=O)C3CC(C)CCC3C(C)C)cc2)nc(OC)n1 (stereo not shown) [sulfadimethoxine analog] , field EC50: 60

----------
MEASUREMENT DESCRIPTION: Threshold cooling effect of p-menthane carboxylic acid esters
Type: in vivo, human
CONDITION PARAMETERS: p-menthane-COOR esters
OBSERVATION TYPE: Threshold Cooling Effect (µg)
Your answer is read as µg, so omit the unit and give the number.

Record OCCCO , field Threshold Cooling Effect: 7

Record CC(O)C(C)O (centres unmarked) , field Threshold Cooling Effect: 3

Record CC(O)CO (centres unmarked) , field Threshold Cooling Effect: 1.4

Record OCCOCCOCCO , field Threshold Cooling Effect: 5

Record OCCOCCO , field Threshold Cooling Effect: 1

Record OC[C@@H](O)[C@@H](O)[C@H](O)[C@@H](O)CO , field Threshold Cooling Effect: 50

Record CC(O)C(=O)O (centres unmarked) , field Threshold Cooling Effect: 8

Record OCCCCO , field Threshold Cooling Effect: 12

Record Cc1cc(O)cc(O)c1 [3,5-dihydroxytoluene] , field Threshold Cooling Effect: 15

Record OCC(O)CO , field Threshold Cooling Effect: 1.2

Record CC(C)(O)C(=O)O [2-hydroxy-2-methylpropanoic acid] , field Threshold Cooling Effect: 20

----------
MEASUREMENT DESCRIPTION: Threshold cooling effect of p-menthane carboxylic acid esters
Format: in vivo, human
CONDITION PARAMETERS: p-menthane-COOR esters
OBSERVATION TYPE: Threshold Cooling Effect

Record OCCO , field Threshold Cooling Effect: 1.5 µg

Record OC1CCCCC1O (stereo not shown) , field Threshold Cooling Effect: 4 µg

Record CC(=O)OCCOC(=O)C1CC(C)CCC1C(C)C (stereo not shown) , field Threshold Cooling Effect: 33 µg

Record CCOC(=O)C(C)O (stereo not shown) [ethyl lactate] , field Threshold Cooling Effect: 50 µg

Record OCC#CCO , field Threshold Cooling Effect: 6 µg

Record CC1(C)OCC(CO)O1 (stereo not shown) , field Threshold Cooling Effect: 11 µg

Record CC1CCC(C(C)C)C(C(=O)OCC(=O)O)C1 (stereo not shown) , field Threshold Cooling Effect: 15 µg

----------
System: lips and nasal mucous membranes
MEASUREMENT DESCRIPTION: Cooling effect of suspension applied to lips and nasal mucous membranes
Type: in vivo, human
CONDITION PARAMETERS: 20 mg/ml suspension in saline-10% Tween 80, lips and nasal mucous membranes
OBSERVATION TYPE: cooling effect on the lips and on breathing sensation

- COc1cnc(NS(=O)(=O)c2ccc(NC(=O)C3CC(C)CCC3C(C)C)cc2)nc1 (stereo not drawn): moderate activities
- COc1cc(NS(=O)(=O)c2ccc(NC(=O)C3CC(C)CCC3C(C)C)cc2)nc(OC)n1 (stereo not drawn): slightly active
- Cc1noc(NS(=O)(=O)c2ccc(NC(=O)C3CC(C)CCC3C(C)C)cc2)c1C (stereo not drawn): slightly active
- COc1ccc(NS(=O)(=O)c2ccc(NC(=O)C3CC(C)CCC3C(C)C)cc2)nn1 (stereo not drawn): moderate activities
